Tested on: HCT116
Test: CCK-8 in vitro anti-tumor proliferation assay
Type: cell-based
Conditions: Homo sapiens, HCT-116; Table 5; HCT116; 72 hours; read-out: IC50
Description: Example 3: In vitro anti-tumor proliferation assay of the compounds. The purpose of this experiment was to use CCK-8 to detect the in vitro inhibitory activity of the compounds of the present invention against the proliferation of tumor cells. […] The previous culture medium was discarded, fresh culture medium was added to resuspend the cells, and then the cells were counted. […]
pIC50: −log10 of the molar value.
measurement_type: pIC50

Quick one: give me pIC50 for each item below, same order please.
1. CN1CCn2c1nc(=O)c1c2CCN(Cc2ccccc2)C1
2. Cc1ccccc1CN1CCn2c1nc(=O)c1c2CCN(C(=O)c2ccccc2)C1
3. CCN1CCc2c(c(=O)nc3n2CCN3Cc2ccccc2C)C1
4. O=c1nc2n(c3c1CN(Cc1ccccc1)CC3)CCN2CC1CC1

**A:**
< 5.00
< 5.00
< 5.00
< 5.00
